# target: GRIP2_7, Q9C0E4
# Sequence (Q9C0E4 934-1023): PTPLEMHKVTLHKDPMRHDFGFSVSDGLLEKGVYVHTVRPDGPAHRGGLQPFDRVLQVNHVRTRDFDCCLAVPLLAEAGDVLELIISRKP
# assay-remarks: holdup assay
# Parameters: key: below the threshold = too weak to quantify, mostly under pKd 3.1 to 4
# run-conditions: plain residues with an end cap or a label only (N-terminal biotin on a linker: ttds)
quantity: pKd

Some binders with known pKd results, for comparison:
binder	pKd
PKRPFVESNV [TANC2, Q9HCD6]	below the threshold
DPLTPSRSQL [DGKK, Q5KSL6]	3.64
DPRNTQTSQI [ABRAXAS2, Q15018]	3.55
QFQYAKESYI [TAGAP, Q8N103]	below the threshold
VNKVWDQSSV [CIT, O14578]	below the threshold
LCALPKVTTV [AGMAT, Q9BSE5]	below the threshold

Kindly consider the entry below.
Given LDSQIQETSI [MAP4, P27816] , state its recorded pKd.
below the threshold
